# EXPERIMENTAL_SYSTEM: mHTT (Homo sapiens, UniProt P42858)
# Construct: host or cells: ST HDH Q111/111 mouse striatal cell line (knock-in locus)
# Sequence (P42858 with tags, fused parts or gaps with the stated changes): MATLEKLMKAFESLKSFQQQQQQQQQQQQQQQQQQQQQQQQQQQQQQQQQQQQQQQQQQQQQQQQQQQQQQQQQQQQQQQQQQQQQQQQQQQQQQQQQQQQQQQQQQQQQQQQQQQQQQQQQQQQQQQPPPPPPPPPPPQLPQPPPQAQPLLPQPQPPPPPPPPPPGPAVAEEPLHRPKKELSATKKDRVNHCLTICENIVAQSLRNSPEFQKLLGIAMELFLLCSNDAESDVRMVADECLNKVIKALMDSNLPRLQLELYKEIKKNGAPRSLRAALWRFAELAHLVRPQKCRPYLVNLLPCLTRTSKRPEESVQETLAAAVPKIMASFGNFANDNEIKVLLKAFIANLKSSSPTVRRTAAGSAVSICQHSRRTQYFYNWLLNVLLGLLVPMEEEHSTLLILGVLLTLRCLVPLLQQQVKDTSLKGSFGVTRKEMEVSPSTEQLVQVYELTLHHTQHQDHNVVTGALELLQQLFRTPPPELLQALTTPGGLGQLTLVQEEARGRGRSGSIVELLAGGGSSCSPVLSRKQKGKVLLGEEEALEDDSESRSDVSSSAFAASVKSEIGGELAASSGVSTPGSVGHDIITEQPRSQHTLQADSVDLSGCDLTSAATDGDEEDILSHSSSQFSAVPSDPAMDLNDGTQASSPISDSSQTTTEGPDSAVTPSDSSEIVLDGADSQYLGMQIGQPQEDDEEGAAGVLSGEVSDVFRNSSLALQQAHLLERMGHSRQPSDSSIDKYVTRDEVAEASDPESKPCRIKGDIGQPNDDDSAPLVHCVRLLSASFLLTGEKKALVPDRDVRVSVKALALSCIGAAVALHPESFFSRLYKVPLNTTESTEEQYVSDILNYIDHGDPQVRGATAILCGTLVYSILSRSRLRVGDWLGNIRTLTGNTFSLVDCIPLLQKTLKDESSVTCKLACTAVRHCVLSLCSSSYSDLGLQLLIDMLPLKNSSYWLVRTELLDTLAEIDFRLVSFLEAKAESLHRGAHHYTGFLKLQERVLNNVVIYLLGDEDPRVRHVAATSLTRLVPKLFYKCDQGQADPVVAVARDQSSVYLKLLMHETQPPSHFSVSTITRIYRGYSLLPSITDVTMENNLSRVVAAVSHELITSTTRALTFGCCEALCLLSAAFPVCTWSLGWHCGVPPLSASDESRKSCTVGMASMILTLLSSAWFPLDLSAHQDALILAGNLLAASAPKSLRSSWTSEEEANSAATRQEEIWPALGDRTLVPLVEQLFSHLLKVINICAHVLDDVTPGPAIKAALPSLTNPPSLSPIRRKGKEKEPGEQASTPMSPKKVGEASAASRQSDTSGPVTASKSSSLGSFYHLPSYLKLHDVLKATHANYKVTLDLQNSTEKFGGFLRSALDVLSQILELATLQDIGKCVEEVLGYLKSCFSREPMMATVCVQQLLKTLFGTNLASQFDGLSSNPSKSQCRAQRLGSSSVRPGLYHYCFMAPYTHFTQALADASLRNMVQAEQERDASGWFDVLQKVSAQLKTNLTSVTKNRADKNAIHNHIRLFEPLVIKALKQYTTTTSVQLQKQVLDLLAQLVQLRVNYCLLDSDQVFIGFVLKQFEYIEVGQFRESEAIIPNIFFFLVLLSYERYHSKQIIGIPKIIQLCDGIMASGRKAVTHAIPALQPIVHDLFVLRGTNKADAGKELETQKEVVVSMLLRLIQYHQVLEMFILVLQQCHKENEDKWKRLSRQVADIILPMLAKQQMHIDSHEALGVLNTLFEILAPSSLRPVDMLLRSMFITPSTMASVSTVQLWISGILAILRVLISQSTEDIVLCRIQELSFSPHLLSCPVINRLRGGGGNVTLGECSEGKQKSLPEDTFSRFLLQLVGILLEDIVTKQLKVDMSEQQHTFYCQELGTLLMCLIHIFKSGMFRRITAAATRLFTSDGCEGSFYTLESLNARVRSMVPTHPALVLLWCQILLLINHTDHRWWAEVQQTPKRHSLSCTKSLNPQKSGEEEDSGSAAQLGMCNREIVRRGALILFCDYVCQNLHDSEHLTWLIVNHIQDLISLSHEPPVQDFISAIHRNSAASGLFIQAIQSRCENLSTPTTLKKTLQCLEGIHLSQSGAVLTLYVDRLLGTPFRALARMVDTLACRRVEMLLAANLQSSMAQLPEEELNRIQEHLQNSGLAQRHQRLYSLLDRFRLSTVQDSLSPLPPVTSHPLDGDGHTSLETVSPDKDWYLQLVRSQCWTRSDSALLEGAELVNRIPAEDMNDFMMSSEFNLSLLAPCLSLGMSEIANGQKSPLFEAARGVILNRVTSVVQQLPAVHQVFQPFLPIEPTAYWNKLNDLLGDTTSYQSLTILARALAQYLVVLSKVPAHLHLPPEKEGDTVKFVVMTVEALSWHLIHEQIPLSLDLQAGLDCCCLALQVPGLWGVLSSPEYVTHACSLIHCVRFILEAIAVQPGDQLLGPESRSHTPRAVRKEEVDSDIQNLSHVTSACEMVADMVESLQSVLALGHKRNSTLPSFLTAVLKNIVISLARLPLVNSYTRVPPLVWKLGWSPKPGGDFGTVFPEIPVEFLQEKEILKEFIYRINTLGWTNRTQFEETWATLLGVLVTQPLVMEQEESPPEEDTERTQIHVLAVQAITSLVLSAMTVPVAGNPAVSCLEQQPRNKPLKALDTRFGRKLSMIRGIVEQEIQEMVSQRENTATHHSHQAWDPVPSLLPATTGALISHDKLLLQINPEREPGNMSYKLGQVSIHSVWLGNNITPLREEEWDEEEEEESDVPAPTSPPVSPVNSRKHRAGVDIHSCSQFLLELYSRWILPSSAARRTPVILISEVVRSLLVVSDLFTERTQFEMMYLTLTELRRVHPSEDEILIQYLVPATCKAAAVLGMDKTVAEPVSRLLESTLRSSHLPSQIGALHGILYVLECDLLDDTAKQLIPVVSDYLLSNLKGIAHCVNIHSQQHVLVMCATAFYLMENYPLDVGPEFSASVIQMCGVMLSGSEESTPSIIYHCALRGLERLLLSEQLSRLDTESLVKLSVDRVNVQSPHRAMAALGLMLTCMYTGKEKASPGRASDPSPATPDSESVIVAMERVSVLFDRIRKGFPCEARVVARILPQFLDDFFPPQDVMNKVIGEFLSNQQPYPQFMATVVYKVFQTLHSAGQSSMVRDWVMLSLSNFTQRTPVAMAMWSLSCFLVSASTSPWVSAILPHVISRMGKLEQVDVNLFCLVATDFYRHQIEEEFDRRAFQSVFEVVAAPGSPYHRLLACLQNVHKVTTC
# TEST: mHTT levels in striatal cells (immunocytochemistry)
# Type: cell-based, mouse
# APPLIED_CONDITIONS: STHdh 111/111; 10 µM; 3 hours heat shock, 48 hours treatment; percentage in comparison to untreated STHdh 111/111; 3B5H10 antibody; read-out: mHTT after treatment
Hi there, I'd appreciate the recorded remaining activity at 10 µM for every entry that follows.

Item under review: CCc1[nH]c2ccc(C(=O)NCCN3CCCC3)cc2c1C . Reported remaining activity at 10 µM?
40%

Entry Cc1[nH]c2ccc(C(=O)NC3CCC(N(C)C)CC3)cc2c1C (centres unmarked) please
38%

Entry O=C(NCCN1CCOCC1)c1ccc2[nH]c3c(c2c1)CCC3 please
38%

Entry CCc1[nH]c2ccc(C(=O)NCCN(C)C)cc2c1C please
56%

Entry Cc1[nH]c2ccc(C(=O)NCCN3CCN(C)CC3)cc2c1C please
47%

Entry CCc1[nH]c2ccc(C(=O)NCCN(CC)CC)cc2c1C please
57%

Entry Cc1[nH]c2ccc(C(=O)NCCN3CCOCC3(C)C)cc2c1C please
51%

Entry CN(C)CCNC(=O)c1ccc2[nH]c3c(c2c1)CCC3 please
36%

Entry O=C(NCCN1CCC1)c1ccc2[nH]c3c(c2c1)CCCC3 please
45%

Entry Cc1[nH]c2ccc(C(=O)NCCN(C(C)C)C(C)C)cc2c1C please
46%

Entry Cc1[nH]c2ccc(C(=O)NCCN3CCCCC3)cc2c1C please
66%

Entry Cc1c(C)n(C)c2ccc(C(=O)NCCN3CCCCC3C)cc12 (centres unmarked) please
68%

Entry O=C(NCCN1CCC1)c1ccc2[nH]c3c(c2c1)CCC3 please
65%

Entry Cc1[nH]c2ccc(C(=O)NCCN3CCCC3)cc2c1C please
51%

Entry CCc1c(C)[nH]c2ccc(C(=O)NCCN(C)C)cc12 please
30%

Entry CCc1c(C)[nH]c2ccc(C(=O)NCCN3CCOCC3)cc12 please
53%

Entry Cc1[nH]c2ccc(C(=O)NCCN3CCOCC3)cc2c1C please
32%

Entry Cc1c(C)n(C)c2ccc(C(=O)NCCN3CCCCC3)cc12 please
52%

Entry Cc1c(C)n(C)c2ccc(C(=O)NCCN3CCCC3)cc12 please
66%

Entry CCc1c(C)[nH]c2ccc(C(=O)NCCN(CC)CC)cc12 please
34%

----------
# TEST: Log D
# Assay type: physicochemical
# APPLIED_CONDITIONS: pH 7.4; pH 7,4
Hi there, I'd appreciate the recorded logD for every entry that follows.

Item under review: CCc1c(C)[nH]c2ccc(C(=O)NCCN(CC)CC)cc12 . Reported logD?
2.02

Entry Cc1[nH]c2ccc(C(=O)NCCN(C(C)C)C(C)C)cc2c1C please
1.21

----------
Hi there, I'd appreciate the recorded mHTT after treatment for every entry that follows.
# EXPERIMENTAL_SYSTEM: mHTT (Homo sapiens, UniProt P42858)
# Construct: host or cells: ST HDH Q111/111 mouse striatal cell line (knock-in locus)
# TEST: mHTT levels in striatal cells (immunocytochemistry)
# Assay type: cell-based, mouse
# APPLIED_CONDITIONS: STHdh 111/111; 10 µM; 3 hours heat shock, 48 hours treatment; percentage in comparison to untreated STHdh 111/111; 3B5H10 antibody
Lab book: enter the figure in %, no units written.

Item under review: CCN(CC)CCNC(=O)c1ccc2c(c1)c(C)c(C)n2C [Compound 19] . Reported mHTT after treatment?
45

Entry Cc1[nH]c2ccc(C(=O)NCCN(C)C3CCCC3)cc2c1C [Compound 55] please
91

Entry CCc1[nH]c2ccc(C(=O)NCCN3CCN(C)CC3)cc2c1C [Compound 9] please
37

Entry Cc1c(C)n(C)c2ccc(C(=O)NCCN3CCC3)cc12 [Compound 44] please
66

Entry CC(C)N(CCNC(=O)c1ccc2[nH]c3c(c2c1)CCCC3)C(C)C [Compound 34] please
56
